Reported Percent Effect values are given for each entry in this list.
# system: Proteasome subunit beta (Trypanosoma cruzi) (UniProt O96673)
# Sequence (whole entry): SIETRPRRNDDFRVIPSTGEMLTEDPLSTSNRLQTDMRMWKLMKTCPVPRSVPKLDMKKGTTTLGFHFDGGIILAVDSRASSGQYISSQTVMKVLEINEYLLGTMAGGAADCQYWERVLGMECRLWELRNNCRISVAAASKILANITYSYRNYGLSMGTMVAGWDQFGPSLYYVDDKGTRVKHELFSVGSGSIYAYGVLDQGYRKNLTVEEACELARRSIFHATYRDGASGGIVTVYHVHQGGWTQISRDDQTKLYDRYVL
# protocolText: Trypanosoma cruzi proteasome chymotrypsin-like activity (TcProtChymo) assay. Further: in the data most compounds retested in dose-response had high values.
# Format: functional
# Design: scale not given: direction of the effect not stated beside the values
# conditionSet: 9.37 µM
Lab book: enter the figure in %, no units written.

Worked examples follow.
{"columns": ["compound", "Percent Effect [%]"],
 "data": [
  ["CCn1cnnc1CNC(=O)N1CCC(Cc2cccnc2)CC1", 0.0808],
  ["CCc1nccn1C1CCCN(C(=O)c2ccc3[nH]cnc3c2)C1 (centres undefined)", 9.3],
  ["Fc1ccc(CN2CCO[C@H]3[C@H](OCC4CC4)CC[C@@H]32)cc1", 8.89],
  ["CC1CCN(CCNC(=O)C2CCN(S(N)(=O)=O)CC2)CC1", 10],
  ["CN(CC1CCCCO1)C(=O)c1ccnc(OC2CCC2)c1 (centres undefined)", 8.62],
  ["c1ccc(NCc2cn3c(n2)CN(Cc2cccnc2)CC3)nc1", 23.6],
  ["CCc1nc2n(n1)CC(NCc1nc(C)ccc1O)CC2 (centres undefined)", 5.85],
  ["O=C(c1cc(Cl)cc(Cl)c1)N1CCN(c2nccs2)CC1", 19.2],
  ["COc1ccc(CN2C[C@@H]3CCCO[C@@H]3[C@H](NS(C)(=O)=O)C2)cc1", 5.13],
  ["Cc1cc(CN2CCN(C(C)c3nc(C4CC4)no3)CC2)no1 (centres undefined)", 13.4]
]}

Percent Effect measured on "Cc1nn(C)c(N(C)C)c1CNCc1cccc(OCCN(C)C)c1" = 14.4

Notebook: "O=C(NC[C@]12COC[C@H]1CN(C1CCOCC1)C2)c1ccco1" , Percent Effect read as 12.8

compound "COCCOc1ccc(NC(=O)N(C)Cc2ccsc2)cn1" , Percent Effect observed: 7.94

The recorded Percent Effect for entry CCCS(=O)(=O)NCC1CCOc2ccccc2C1 (centres undefined) equals 5.32

Looking up O=C(CC1CCCC1)N1CCCC1c1nc(O)cc(-c2ccccn2)n1 (centres undefined) , I see its Percent Effect listed as 13.9

Percent Effect for CN(C)C(=O)NC1COC2(CCN(Cc3nccn3C)CC2)C1 (centres undefined) is 11.3

###

# system: Protein translocase subunit SecA (Escherichia coli (strain K12)) (UniProt P10408)
# Sequence (P10408 whole entry): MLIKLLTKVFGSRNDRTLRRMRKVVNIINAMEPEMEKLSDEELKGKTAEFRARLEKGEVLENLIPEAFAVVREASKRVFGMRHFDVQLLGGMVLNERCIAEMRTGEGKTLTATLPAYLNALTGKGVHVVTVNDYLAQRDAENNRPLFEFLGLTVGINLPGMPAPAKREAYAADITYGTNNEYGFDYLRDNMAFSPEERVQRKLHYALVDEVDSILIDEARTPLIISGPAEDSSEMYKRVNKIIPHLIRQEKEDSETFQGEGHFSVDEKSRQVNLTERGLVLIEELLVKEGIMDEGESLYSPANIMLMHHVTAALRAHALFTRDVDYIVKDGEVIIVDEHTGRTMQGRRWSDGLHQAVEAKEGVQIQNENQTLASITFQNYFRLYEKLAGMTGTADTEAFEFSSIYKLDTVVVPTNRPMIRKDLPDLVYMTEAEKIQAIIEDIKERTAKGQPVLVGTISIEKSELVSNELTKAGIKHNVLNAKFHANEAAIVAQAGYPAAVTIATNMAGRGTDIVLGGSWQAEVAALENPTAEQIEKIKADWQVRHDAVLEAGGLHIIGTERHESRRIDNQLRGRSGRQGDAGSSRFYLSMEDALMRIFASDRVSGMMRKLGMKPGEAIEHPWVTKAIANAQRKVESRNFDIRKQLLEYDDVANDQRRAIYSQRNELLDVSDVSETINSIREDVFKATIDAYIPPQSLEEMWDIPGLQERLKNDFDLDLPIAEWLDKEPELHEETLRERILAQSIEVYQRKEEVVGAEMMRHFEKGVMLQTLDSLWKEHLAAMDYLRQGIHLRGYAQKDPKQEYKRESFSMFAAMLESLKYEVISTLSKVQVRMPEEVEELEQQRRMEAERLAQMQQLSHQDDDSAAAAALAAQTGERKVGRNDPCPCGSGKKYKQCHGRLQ
# protocolText: Assay to Identify E. coli SecA ATPase Inhibitors
# Format: functional
# Parameters: scale not given: direction of the effect not stated beside the values
# conditionSet: 30 µM
Potency and affinity values are given separately.
readoutType: Percent Effect (%)
# value in %; strip the unit string

Please review the entries below; each comes with its answer.
{"columns": ["molecule", "readoutType", "quantitativeResult"],
 "data": [
  ["COc1ccc(CN(C)Cc2nc3c(cnn3C)c(=O)[nH]2)cc1OC", "Percent Effect", -1.17],
  ["CN(C)Cc1ccnc(C2CCCN2Cc2ccncc2)n1 (stereo unspecified)", "Percent Effect", -4.54]
]}

"O=C(NCc1cnc2n1CCN(CC1CC1)CC2)C1CCC1" yielded Percent Effect of -2.75

The measured Percent Effect associated with "COc1ccnc(N2CCN(C(=O)c3csc(C(C)C)n3)CC2)n1" reads -7.52

Cc1[nH]c(=O)[nH]c(=O)c1CN1CCCC(CCc2c(F)cccc2F)C1 (stereo unspecified) has a reported Percent Effect of -0.639

Record summary for "CCN1CCN(C2CCN(Cc3cc(C)on3)CC2)C1=O" : reported Percent Effect = -6.77

# molecule Cc1ccc2c(c1)c(CNC(=O)C1CC(=O)N(C3CCCC3)C1)nn2C (stereo unspecified) ; its Percent Effect = 1.21

###

# system: Tyrosyl-tRNA synthetase, putative (Trypanosoma cruzi (strain CL Brener))
# protocolText: Trypanosoma cruzi tyrosyl tRNA synthetase (TcYRS) _High Tyrosine SOP; further: in the data most compounds retested in dose-response had high values
# Type: functional
# Design: scale not given: direction of the effect not stated beside the values
# conditionSet: 30 µM
readoutType: Percent Effect (%)
Hi! Could you send only the number? It should be in %, unit omitted.

CCc1nccn1C1CCCN(C(=O)c2ccc(C(=O)NC)nc2)C1 (stereo unspecified) yielded Percent Effect of 1.94

Quick note, Percent Effect for Cc1nc(C)n(C2CCCN(C(=O)c3sccc3C3CC3)C2)n1 (stereo unspecified) landed at -2.46

The reported Percent Effect of the molecule "CN(Cc1cccc(Cl)c1)S(=O)(=O)N1CCOCC1" was 1.06

// field: Percent Effect; key: CCOc1nnc(CN2CCC(N(C)Cc3noc(C)n3)C2)s1 (stereo unspecified) ; value = 7.39

Field Percent Effect (entry "CC[C@@]1(O)CCN(C(=O)c2ccsc2)C[C@H]1O" ) reads 4.21

The recorded Percent Effect for CC(C)Oc1ccccc1C1CC(=O)Nc2c1cnn2C (stereo unspecified) is -2.13

###

# system: Proteasome subunit beta (Trypanosoma cruzi) (UniProt O96673)
# Sequence (whole entry): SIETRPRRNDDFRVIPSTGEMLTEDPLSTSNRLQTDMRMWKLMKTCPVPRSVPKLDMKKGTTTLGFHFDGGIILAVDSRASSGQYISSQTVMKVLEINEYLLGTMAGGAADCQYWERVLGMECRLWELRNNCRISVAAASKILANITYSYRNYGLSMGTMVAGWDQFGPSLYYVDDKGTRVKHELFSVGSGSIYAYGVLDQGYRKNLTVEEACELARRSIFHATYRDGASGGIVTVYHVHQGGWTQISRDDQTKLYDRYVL
# protocolText: Trypanosoma cruzi proteasome chymotrypsin-like activity (TcProtChymo) assay. Further: in the data most compounds retested in dose-response had high values.
# Assay type: functional
# Set-up: scale not given: direction of the effect not stated beside the values
# conditionSet: 9.37 µM
# Percent Effect values compiled below
Just the number please, in %, no unit attached.

{"columns": ["compound", "system", "Percent Effect, %"],
 "data": [
  ["Cc1nc(CN2CCc3ncnc(-c4ccc(F)cc4)c3CC2)cs1", "Proteasome subunit beta (Trypanosoma cruzi) (UniProt O96673)", 18.4]
]}

Note: attention shifts to another entry.
Entry COCCn1nc(C(=O)N2CCCC2c2cccc(F)c2)ccc1=O (centres undefined) ; assay system Proteasome subunit beta (Trypanosoma cruzi) (UniProt O96673); Percent Effect recorded at 8.1

###

Below, each entry is listed with its recorded Percent Effect.
# system: AMP-activated protein kinase, AMPK (Homo sapiens) (UniProt P54646+O43741+P54619+Q9UGJ0+Q9Y478+Q13131+Q9UGI9)
# protocolText: AMP-dependent Kinase enzyme assay. An in vitro enzyme assay that detects ADP turnover that is directly proportional to AMPK activity. This uses naive AMPK that is activated during the assay with MK-8722
# Type: functional
# Set-up: scale not given: direction of the effect not stated beside the values
# conditionSet: 30 µM
Could you give me the number in %? Just the number is fine.

{"columns": ["compound", "Percent Effect (%)"],
 "data": [
  ["O=C(CCc1cc2n(n1)CCCN(C(=O)c1ccccn1)C2)NC1CC1", -1.28],
  ["Cc1noc([C@H]2CC[C@@H]3[C@@H](CCN3S(C)(=O)=O)O2)n1", 1.84],
  ["CCc1nc(C(=O)NCc2ccc(N3CCNC(=O)C3)c(F)c2)c[nH]1", -4.78],
  ["CCc1nc(CCNC(=O)Nc2cc(C(N)=O)sc2C)cs1", -8.97],
  ["CCc1ccc(CNC(=O)NC(C)CN2CCOCC2)s1 (stereo not drawn)", -5.99]
]}

The reported Percent Effect of the compound "COc1ccc(CCN2CCc3c(nc(C4CC4)n3C)C2)cc1" was -12.2

Percent Effect recorded for this compound, "Cc1cccc(NC(=O)Cn2ncc(SCC(N)=O)c(Cl)c2=O)c1C" , is 4.95

Query "CN(C)C(=O)CO[C@H]1CN(Cc2ccc(F)cc2)[C@@H]2CCCO[C@H]12" yields Percent Effect of 1.52

The recorded Percent Effect for entry "CCO[C@@H]1CO[C@@]2(CCCN(Cc3scnc3C)C2)C1" equals -3.01

Lab note: measured Percent Effect of "COc1cc(C)sc1C(=O)N1CCC(Nc2cccnc2)CC1" was 0.841

The compound identified as CC(C)Cc1noc(CN2CCOC(Cn3cncn3)C2)n1 (stereo not drawn) registered its Percent Effect at 2.5

For reference, reported Percent Effect for "O=C(Nc1ccc(F)cc1F)Nc1c[nH]c(=O)[nH]c1=O" stands at 5.76

GET /value?item= "CC1CCN(CCNC(=O)C2CCN(S(N)(=O)=O)CC2)CC1" &field=Percent Effect returns -5.79

GET /value?item= O=C(c1cccnc1N1CCOCC1)N1CCCC1Cn1cccn1 (stereo not drawn) &field=Percent Effect returns 5.93

Given item Cc1ccc(CC(=O)N2CCCC(c3cc(C)[nH]n3)C2)cn1 (stereo not drawn) , the value recorded as its Percent Effect is -1.96

get_value(item= Cc1ccccc1CC1(CO)CCCN(c2ncccc2C#N)C1 (stereo not drawn) , readout=Percent Effect) returns 3.1
